Target: F508delCFTR (Homo sapiens, UniProt P13569, DEL508-508)
Construct: expressed in transfected cells; host or cells: CFBE41o- human lung-derived epithelial cells (CFBE4lo-F508delCFTR-HRP), doxycycline-inducible
Sequence (P13569 with tags, fused parts or gaps DEL508-508): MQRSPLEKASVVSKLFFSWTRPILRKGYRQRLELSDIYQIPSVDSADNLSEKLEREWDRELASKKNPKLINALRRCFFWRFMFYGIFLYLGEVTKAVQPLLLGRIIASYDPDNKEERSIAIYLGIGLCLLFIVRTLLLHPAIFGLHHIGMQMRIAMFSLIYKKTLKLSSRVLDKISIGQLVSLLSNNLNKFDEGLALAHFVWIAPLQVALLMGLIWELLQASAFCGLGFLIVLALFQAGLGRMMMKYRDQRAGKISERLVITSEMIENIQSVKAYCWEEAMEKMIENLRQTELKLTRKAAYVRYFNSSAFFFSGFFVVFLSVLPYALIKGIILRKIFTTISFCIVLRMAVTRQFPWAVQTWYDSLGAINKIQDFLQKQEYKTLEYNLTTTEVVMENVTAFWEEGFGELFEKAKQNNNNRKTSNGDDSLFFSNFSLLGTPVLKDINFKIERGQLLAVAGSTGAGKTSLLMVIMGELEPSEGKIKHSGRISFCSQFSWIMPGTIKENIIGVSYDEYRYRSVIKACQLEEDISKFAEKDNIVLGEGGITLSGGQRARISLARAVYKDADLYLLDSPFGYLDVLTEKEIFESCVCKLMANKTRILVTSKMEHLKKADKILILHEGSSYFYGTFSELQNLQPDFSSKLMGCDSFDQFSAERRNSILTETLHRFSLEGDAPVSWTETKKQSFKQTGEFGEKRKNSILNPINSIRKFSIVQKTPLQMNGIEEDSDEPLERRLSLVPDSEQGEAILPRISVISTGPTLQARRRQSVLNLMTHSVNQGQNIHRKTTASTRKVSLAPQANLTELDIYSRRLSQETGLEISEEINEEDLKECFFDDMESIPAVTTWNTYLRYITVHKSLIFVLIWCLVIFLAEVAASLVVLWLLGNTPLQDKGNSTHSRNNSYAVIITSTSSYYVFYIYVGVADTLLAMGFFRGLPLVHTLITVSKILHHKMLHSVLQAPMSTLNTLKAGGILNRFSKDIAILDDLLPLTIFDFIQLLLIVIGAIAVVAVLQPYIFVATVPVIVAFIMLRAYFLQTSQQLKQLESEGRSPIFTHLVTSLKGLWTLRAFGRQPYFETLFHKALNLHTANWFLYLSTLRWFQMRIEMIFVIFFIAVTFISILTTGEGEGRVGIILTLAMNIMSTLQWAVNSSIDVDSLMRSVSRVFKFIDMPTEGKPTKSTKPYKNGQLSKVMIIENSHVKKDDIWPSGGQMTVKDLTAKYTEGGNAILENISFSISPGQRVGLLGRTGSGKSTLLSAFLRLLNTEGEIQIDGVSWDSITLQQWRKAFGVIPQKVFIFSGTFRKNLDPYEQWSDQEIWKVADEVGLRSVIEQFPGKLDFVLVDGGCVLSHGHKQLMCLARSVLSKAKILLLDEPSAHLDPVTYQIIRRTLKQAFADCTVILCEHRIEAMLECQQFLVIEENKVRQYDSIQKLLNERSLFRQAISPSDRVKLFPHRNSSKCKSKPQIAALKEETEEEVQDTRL
Assay: Cell Surface Expression-Horse Radish Peroxidase (CSE-HRP) Assay
Type: cell-based
Details: with co-corrector (2 μM of 3-[(2R,4R)-4-({[1-(2,2-difluoro-1,3-benzodioxol-5-yl)cyclopropyl]carbonyl}amino)-7-methoxy-3,4-dihydro-2H-chromen-2-yl]benzoic acid); read-out: EC50 (with co-corrector)
observation_type: EC50

Worked examples, 3 compounds total:
{"compound": "COc1ncc(C2CCC2)cc1CN[C@H]1[C@H](C(C)(C)C)[C@@H](C(=O)O)N(C(=O)[C@H]2CCCCO2)[C@H]1c1ccccc1F", "target": "F508delCFTR (Homo sapiens, UniProt P13569, DEL508-508)", "value_observed": "1 to 10 µM"}
{"compound": "COc1ccc(C(C)(C)C)cc1CN[C@H]1[C@H](C(C)(C)C)[C@@H](C(=O)O)N(C(=O)C2CC3CC3C2)[C@H]1c1ccccc1 (stereo partly drawn)", "target": "F508delCFTR (Homo sapiens, UniProt P13569, DEL508-508)", "value_observed": "1 to 10 µM"}
{"compound": "CC(C)(C)[C@H]1[C@H](NCc2ccc(C#N)cc2F)[C@H](c2ccccc2)N(C(=O)C2CCCCC2)[C@@H]1C(=O)O", "target": "F508delCFTR (Homo sapiens, UniProt P13569, DEL508-508)", "value_observed": "1 to 10 µM"}

Query: EC50; subject: COc1cc(C(C)(C)C)ccc1CN[C@H]1[C@H](C(C)(C)OC)[C@@H](C(=O)O)N(C(=O)C2CCCCC2)[C@H]1c1ccccc1
Result: 1 to 10 µM

Query: Another compound to look at: COc1nc(C(C)(C)C)ncc1CN[C@H]1[C@H](C(C)(C)C)[C@@H](C(=O)O)N(C(=O)C2CCCCC2)[C@H]1c1ccccc1
Result: 1 to 10 µM

Query: Another compound to look at: COc1ccc(C(C)(C)C)cc1CN[C@H]1[C@H](C(C)(C)C)[C@@H](C(=O)O)N(C(=O)C2CC2(F)F)[C@H]1c1ccccc1 (stereo partly drawn)
Result: 1 to 10 µM

Query: Another compound to look at: COc1ncc(C(F)(F)F)cc1N[C@H]1[C@H](C(C)(C)C)[C@@H](C(=O)O)N(C(=O)C2CCCC(F)(F)C2)[C@H]1c1cccnc1N(C)C (stereo partly drawn)
Result: 1 to 10 µM
